System: Diamond Back Moth (Plutella xylostella)
Measurement protocol: Insecticidal effect on diamond back moth (Test Example 1)
Type: in vivo
Condition context: 50 ppm; Chinese cabbage seedling with deposited eggs immersed about 30 seconds; 25° C.; six days after the immersion
Measured parameter: Test Example 1 insecticidal effect (mortality)

Known Test Example 1 insecticidal effect (mortality) results, listed for orientation:
Molecule: CSCCC(C)NC(=O)c1c(I)cccc1C(=O)Nc1ccc(C(F)(C(F)(F)F)C(F)(F)F)cc1C (stereo not shown) [Compound No. 195]
Measured on: Diamond Back Moth (Plutella xylostella)
Experimental result: A (100)
//
Molecule: Cc1cc(C(F)(F)C(F)(F)F)ccc1NC(=O)c1cccc(I)c1C(=O)N1CCSC1 [3-1]
Measured on: Diamond Back Moth (Plutella xylostella)
Experimental result: A (100)
//
Molecule: Cc1cc(C(F)(C(F)(F)F)C(F)(F)F)ccc1NC(=O)c1cccc(I)c1C(=O)N1CCSC1 [3-2]
Measured on: Diamond Back Moth (Plutella xylostella)
Experimental result: A (100)
//
Molecule: Cc1cc(C(F)(F)C(F)(F)F)ccc1NC(=O)c1cccc([N+](=O)[O-])c1C(=O)NC(C)C[S+](C)[O-] (stereo not shown) [compound 391]
Measured on: Diamond Back Moth (Plutella xylostella)
Experimental result: A (100)
//
Molecule: CSCC(C)(C)NC(=O)c1ccc(OC(F)(F)F)cc1C(=O)Nc1ccc(C(F)(C(F)(F)F)C(F)(F)F)cc1C [compound 356]
Measured on: Diamond Back Moth (Plutella xylostella)
Experimental result: A (100)

**Q:** If you can, please state the reported Test Example 1 insecticidal effect (mortality) value of CSCC(C)(C)NC(=O)c1c(I)cccc1C(=O)Nc1ccc(Cc2ccc(Cl)cc2)cc1C [compound 471] .
**A:** A (100)

**Q:** // lookup Test Example 1 insecticidal effect (mortality) for Cc1cc(Oc2ncc(C(F)(F)F)cc2Cl)ccc1NC(=O)c1cccc(I)c1C(=O)NC(C)C[S+](C)[O-] (stereo not shown) [compound 410]
**A:** A (100)

* * *

Tested on: Common Cutworm (Spodoptera Litura)
Measurement protocol: Insecticidal effect on common cutworm (Test Example 2)
Format: in vivo
Condition context: 50 ppm; cabbage leaf immersed about 30 seconds; second-instar larvae; 25° C.; eight days after the inoculation
Measured parameter: Test Example 2 insecticidal effect (mortality)

Field: example entries. Status: answers known.
Compound: CSCC(C)NC(=O)c1c(C(=O)Nc2ccc(C(F)(F)C(F)(F)F)cc2C)ccc(F)c1Cl (stereo not shown)
Experimental result: C (89-80)
//
Compound: Cc1cc(OC(F)(F)F)ccc1NC(=O)c1cccc(Br)c1C(=O)NC(C)CS(C)(=O)=O (stereo not shown)
Experimental result: C (89-80)
//
Compound: Cc1cc(OC(F)(F)F)ccc1NC(=O)c1cccc(I)c1C(=O)NC(C)CS(=O)(=O)C(C)(C)C (stereo not shown)
Experimental result: A (100)
//
Compound: Cc1cc(C(F)(F)C(F)(F)F)ccc1NC(=O)c1cccc(I)c1C(=O)N1CCSC1
Experimental result: A (100)
//
Compound: Cc1cc(Oc2ncc(C(F)(F)F)cc2Cl)ccc1NC(=O)c1cccc(I)c1C(=O)NC(C)C[S+](C)[O-] (stereo not shown)
Experimental result: A (100)
//
Compound: CCN(CCSC)C(=O)c1c(F)cccc1C(=O)Nc1ccc(C(F)(C(F)(F)F)C(F)(F)F)cc1C
Experimental result: C (89-80)

Turning now to a further record.
**Q:** Return reported Test Example 2 insecticidal effect (mortality); argument: CSCCC(C)NC(=O)c1cccc(I)c1C(=O)Nc1ccc(C(F)(C(F)(F)F)C(F)(F)F)cc1C (stereo not shown)
**A:** A (100)
